- Test system: HIV-1 FSS RNA
- test_details: SPR binding to immobilised HIV-1 FSS RNA
- stated_conditions: SPR, 1:1 Langmuir fit, average of four curves
Exercise: state measured ka for each of the molecules provided.
// note: answer is a bare numeric in M⁻¹ s⁻¹

Item CN(C(=O)c1cnc2ccccc2c1)[C@@H](CCn1cc(C[C@@H](C(=O)N2CCC[C@H]2C(=O)N(C)[C@@H](Cc2ccccc2)C(=O)NCCCN)N(C)C(=O)c2cnc3ccccc3c2)nn1)C(=O)N1CCC[C@H]1C(=O)N(C)[C@@H](Cc1ccccc1)C(=O)NCCCN has what recorded ka?
56600

Item CCc1nc2ccccc2cc1C(=O)N(C)[C@@H](CCn1cc(C[C@@H](C(=O)N2CCC[C@H]2C(=O)N(C)[C@@H](Cc2ccccc2)C(=O)NCCCN)N(C)C(=O)c2cc3ccccc3nc2CC)nn1)C(=O)N1CCC[C@H]1C(=O)N(C)[C@@H](Cc1ccccc1)C(=O)NCCCN has what recorded ka?
64900

Item CCc1nc2cc3ccccc3cc2cc1C(=O)N(C)[C@@H](CCn1cc(C[C@@H](C(=O)N2CCC[C@H]2C(=O)N(C)[C@@H](Cc2ccccc2)C(=O)NCCCN)N(C)C(=O)c2cc3cc4ccccc4cc3nc2CC)nn1)C(=O)N1CCC[C@H]1C(=O)N(C)[C@@H](Cc1ccccc1)C(=O)NCCCN has what recorded ka?
190000
